System: DLD-1
Assay: NCI tumour cell line growth inhibition, 48 h
Active and inactive are the calls of the source. Cut-off read from the data, not from the text of the source: active = GI50 up to about 1.1 µM and inactive = higher.
Parameter call: string, one of active, inactive

COMPOUND	TESTED_SYSTEM	ASSIGNED_LABEL
NC1c2ccccc2Nc2ccccc21	DLD-1	inactive
CCOC1=C2N=C(Cc3ccccc3F)N=C2C(=O)c2ccccc21	DLD-1	inactive
CN(C)/N=N/c1c[nH]nc1C(N)=O	DLD-1	inactive
O=C(O)C12C3CCCC1C2CC3 (stereo unspecified)	DLD-1	inactive
O=c1c(Sc2c(O)c3ccccc3c3ccccc3c2=O)c(O)c2ccccc2c2ccccc12	DLD-1	inactive

Consider the additional compound presented here.
Q: Could you please tell me the result logged for COc1ccc(/C=C2/C(=O)N(C(=O)c3ccccc3O)N=C2C)cc1 in this assay?
A: active

###

Test system: EKVX
Assay: NCI tumour cell line growth inhibition, 48 h
Calls of active or inactive are those of the source. Cut-off read from the data, not from the text of the source: active = GI50 up to about 1.1 µM and inactive = higher.
Parameter call: string, one of 1 (active), -1 (inactive)

Worked cases, answers included:
COMPOUND	ASSIGNED_LABEL
Cc1ccc(-c2cn3c(nc4ccccc43)c(C)n2)cc1	-1
COC1=CC(c2ccc(Br)[nH]2)=N/C1=C/NCC(C)C	1
N#Cc1nc(/C=C/c2cccnc2)oc1N	-1
CC(CN(C)C)C(=O)c1ccccc1C(=O)O (stereo unspecified)	-1
CN(C)/N=N/c1c[nH]nc1C(N)=O	-1
CN(C)CCNC(=O)c1cccc2nc3cccc(F)c3nc12	-1

Q: Could you please tell me the result logged for CCOC(=O)CCC(NC(=O)c1ccc(Nc2nc3ccccc3n3cccc23)cc1)C(=O)OCC (stereo unspecified) in this assay?
A: -1

Q: Could you please tell me the result logged for COc1ccc2c(O)c(Oc3ccc(Cl)cc3)c(=O)oc2c1 in this assay?
A: -1

Q: Could you please tell me the result logged for O=[N+]([O-])/C(Cl)=C(\NCCN/C(C(Cl)=C(Cl)Cl)=C(/Cl)[N+](=O)[O-])C(Cl)=C(Cl)Cl in this assay?
A: -1

Q: Could you please tell me the result logged for O=C(O)CC(NC(=O)CP(=O)(O)O)C(=O)O (stereo unspecified) in this assay?
A: -1

Q: Could you please tell me the result logged for C/C(=N\Nc1nc2ccccc2s1)c1cccc[n+]1[O-] in this assay?
A: -1

###

Tested on: MCF7
Assay: NCI tumour cell line growth inhibition, 48 h
Calls of active or inactive are those of the source. Rule as the data show it: active = GI50 up to about 1.1 µM and inactive = higher.
Parameter call: string, one of T (active), F (inactive)

Worked cases, answers included:
COMPOUND	ASSIGNED_LABEL
Cn1cc(-c2n[nH]c(-c3ccc(Cl)cc3)nc2=O)c2ccccc21	F
N#Cc1c(-c2cccc(Cl)c2)cc(-c2ccc(Cl)cc2)nc1N	F
COc1ccc(Nc2nc(NNC(=O)Cc3ccccc3)nc(NNC(=O)c3ccncc3)n2)cc1	F

Q: Could you please tell me the result logged for O=C1c2ccccc2C2(c3ccc(F)cc3)NCCN12 (stereo unspecified) in this assay?
A: F

Q: Could you please tell me the result logged for CC(C)(C)[Si](C)(C)OCC1C=CC(n2cnc3c(N)ncnc32)O1 (stereo unspecified) in this assay?
A: F

Q: Could you please tell me the result logged for COc1ccc(N2C(=O)CC(Cl)C2=O)cc1 (stereo unspecified) in this assay?
A: F

Q: Could you please tell me the result logged for COc1ccc(C(Cc2ccccc2)C2NC(=S)NC2=O)cc1 (stereo unspecified) in this assay?
A: F

Q: Could you please tell me the result logged for O=C(CCl)Nc1ccc(-c2nc3ccccc3s2)cc1 in this assay?
A: T

Q: Could you please tell me the result logged for O=C(Cn1nnc(-c2ccccc2)n1)N/N=C/c1cn(Cc2ccc(Cl)cc2Cl)c2ccccc12 in this assay?
A: F

Q: Could you please tell me the result logged for CC1(C)CC(=O)/C(=C/C2CCNC2=S)C(=O)N1 (stereo unspecified) in this assay?
A: F

###

Test system: SK-MEL-5
Test: NCI tumour cell line growth inhibition, 48 h
Activity calls are given as the source filed them. Cut-off read from the data, not from the text of the source: active = GI50 up to about 1.1 µM and inactive = higher.
REPORTED_ENDPOINT: GI50

MOLECULE	TESTED_SYSTEM	GI50
CNc1ccc(C)cc1S(=O)(=O)c1ccccc1[N+](=O)[O-]	SK-MEL-5	18.2 µM (inactive)
N#Cc1c(-c2cccc(Cl)c2)cc(-c2ccc(Cl)cc2)nc1N	SK-MEL-5	16.1 µM (inactive)

Quick batch: GI50 for everything below.
1. COc1ccc(O[C@H](COCc2ccccc2)C[C@@H]2COC(C)(C)O2)cc1
2. NCCN1C(=O)c2cc(Cl)c(Cl)cc2C1(O)c1ccc(Cl)cc1 (centres undefined)

A:
> 100 µM (inactive)
1.6 µM (inactive)

Quick batch: GI50 for everything below.
1. O=C(/C=C/C=C/c1ccccc1)c1ccc2c(c1)CCCC2
2. O=c1cc2n(c(=O)[nH]1)C1OC(C(O)C1O)[C@@H]2CCO (some centres undefined)

A:
["37.2 µM (inactive)", "> 100 µM (inactive)"]

Quick batch: GI50 for everything below.
1. CC(C)[C@H]1NC(=O)[C@H]2N=C(O[C@@H]2C)[C@@H]2CCCN2C(=O)[C@H](Cc2ccccc2)NC(=O)[C@@H]2COC(=N2)[C@@H](Cc2ccccc2)NC(=O)[C@@H]2COC1=N2
2. N/C(=N\NC(=O)c1nc2ccccc2s1)c1ccccn1
3. N#CC(NNC(=O)c1ccccc1O)c1ccccc1 (centres undefined)
4. Oc1cc(Cl)cc2cc(Cl)cnc12
5. N#Cc1c2c(c(N=P(c3ccccc3)(c3ccccc3)c3ccccc3)n3c1nc1ccccc13)CCCC2
6. CCCCn1cc[n+](-c2nc3ccccc3n2C)c1

A:
> 100 µM (inactive)
4.24 µM (inactive)
16.1 µM (inactive)
3.67 µM (inactive)
10.8 µM (inactive)
> 100 µM (inactive)

Quick batch: GI50 for everything below.
1. NCc1cc(O)c(O)c(O)c1
2. CCOP(=O)(OCC)C(C(=O)OC)C(=O)C(=O)Nc1ccc(Cl)cc1Cl (centres undefined)
3. COC(=O)C(CSSC[C@H](N/C(C)=C/C(C)=O)C(=O)OC)N/C(C)=C/C(C)=O (some centres undefined)
4. O=C(O)CCNCCCCNCCC(=O)O
5. C#CC(O)(c1nc2ccccc2s1)c1nc2ccccc2s1
6. On1c(-c2ccccc2)c(-c2c(-c3ccccc3)n(O)c3ccccc23)c2ccccc21
7. CC(NNC(=O)c1ccncc1)c1ccc(F)cc1 (centres undefined)

A:
["> 100 µM (inactive)", "> 100 µM (inactive)", "67.3 µM (inactive)", "> 100 µM (inactive)", "15.6 µM (inactive)", "21.9 µM (inactive)", "> 100 µM (inactive)"]

Quick batch: GI50 for everything below.
1. N#Cc1nc(C#N)c(NC(=O)c2ccccc2C(=O)O)[nH]1
2. O=C1C(Cl)=C(Cl)C(=O)N1c1ccc(F)cc1 [FLUOROIMIDE]
3. n1onc2c1NC1Nc3nonc3NC1N2 (centres undefined)
4. CN1C2CCC1CN(CCOC(c1ccc(F)cc1)c1ccc(F)cc1)C2

A:
["> 100 µM (inactive)", "38.3 µM (inactive)", "> 100 µM (inactive)", "14.4 µM (inactive)"]

Quick batch: GI50 for everything below.
1. CN1CCc2[nH]c3ccccc3c2C1
2. O=C1Oc2cc3c(c4cccc1c24)OCN(c1ccc(Cl)cc1)C3
3. O=C(O)C1C2C=CC(O2)C1C(=O)Nc1ncccn1 (centres undefined)
4. O=C(Nc1nnc(-c2ccc(Cl)cc2)o1)C(SC(=S)N1CCOCC1)c1ccccc1 (centres undefined)
5. C/C(=N\O)c1cccc[n+]1Cc1ccccc1
6. Clc1ccc(C2SCc3nc4ccccc4n32)c(Cl)c1 (centres undefined)

A:
1: > 100 µM (inactive); 2: 1.37 µM (inactive); 3: > 100 µM (inactive); 4: 12.4 µM (inactive); 5: > 100 µM (inactive); 6: 7.93 µM (inactive)

Quick batch: GI50 for everything below.
1. COc1cc2c(cc1OC)[C@@H]1[C@H](C#N)C(=O)C(C)(C)N1CC2
2. Clc1nc2n(c1/C=C/c1cccs1)CCS2
3. CCC(=O)Nc1ccc(/N=C/c2cccc(Oc3ccccc3)c2)cc1
4. O=C(/N=N/c1cccc(Cl)c1)NNc1cccc(Cl)c1
5. O=C1C=C2CC[C@H]3[C@@H]4CC[C@H](OC(=O)c5cccc6cc7ccccc7nc56)[C@H]4CC[C@@H]3[C@H]2CC1
6. CC(C)(C)n1c(=O)n2n(c1=O)Cc1cccc3cccc(c13)C2

A:
1: > 100 µM (inactive); 2: 17.1 µM (inactive); 3: 33 µM (inactive); 4: 17.9 µM (inactive); 5: > 100 µM (inactive); 6: 19.5 µM (inactive)

Quick batch: GI50 for everything below.
1. Cn1c2ccccc2c(=NNc2ccc(S(=O)(=O)N=C(N)N)cc2)c2ccccc21
2. Cc1ccc2c3c1O[C@H]1c4[nH]c5ccccc5c4C[C@@]4(O)[C@@H](C2)N(C)CC[C@]314
3. CCSc1nc(N2CCCC2)s[s+]1.[O-][Cl+3]([O-])([O-])[O-]
4. COc1cc(C2SCC(=O)N2c2ccc(Cl)cc2)cc(OC)c1OC (centres undefined)
5. O=C(O)C(=Cc1ccnc2ccccc12)C(=O)O
6. CCOC(=O)c1ccc(N2C(=S)N(C(=O)c3ccccc3)C(=N/c3ccccc3)/C2=N\c2ccccc2)cc1
7. N#CC1(CCCCl)CCCCC1

A:
1: 5.41 µM (inactive); 2: 14.5 µM (inactive); 3: 0.08 µM (active); 4: 1.26 µM (inactive); 5: > 100 µM (inactive); 6: 50 µM (inactive); 7: > 100 µM (inactive)

Quick batch: GI50 for everything below.
1. COC(=O)N/N=C(\Cc1ccccc1)CN(C)C
2. NC1=Nc2ncccc2C(=O)NN1

A:
["> 100 µM (inactive)", "> 10 µM (inactive)"]
